target: Interstitial collagenase (Homo sapiens, UniProt P03956); test: Inhibition of trypsin-activated recombinant human collagenase 1 preincubated with protein followed by addition of DNP-Pro-Cha-Gly-Cys(Me)-His-Ala-Lys(NMA)-NH2 as substrate measured after 20 mins by fluorescence analysis
ENDPOINT_NAME: IC50

COMPOUND_SMILES: C[C@@]1(O)CCCN(S(=O)(=O)c2ccc(OCc3ccc(Cl)cc3Cl)cc2)[C@H]1C(=O)NO
RESULT: 200 to 1000 nM
--
COMPOUND_SMILES: C[C@@]1(O)CCCN(S(=O)(=O)c2ccc(OCc3ccc(F)cc3Cl)cc2)[C@H]1C(=O)NO
RESULT: 200 to 1000 nM
--
COMPOUND_SMILES: C[C@@]1(O)CCCN(S(=O)(=O)c2ccc(OCc3ccc(F)cc3F)cc2)[C@H]1C(=O)NO
RESULT: 200 to 1000 nM
--
COMPOUND_SMILES: Cc1ccccc1COc1ccc(S(=O)(=O)N2CCC[C@](C)(O)[C@@H]2C(=O)NO)cc1
RESULT: 200 to 1000 nM
--
COMPOUND_SMILES: CCc1ccccc1COc1ccc(S(=O)(=O)N2CCN(C(=O)NC)[C@@H](C)[C@@H]2C(=O)NO)cc1
RESULT: > 1000 nM
--
COMPOUND_SMILES: Cc1ccc(F)cc1COc1ccc(S(=O)(=O)N2CC(=O)N[C@@H](C)[C@@H]2C(=O)NO)cc1
RESULT: > 1000 nM
--
COMPOUND_SMILES: CC1(C)C[C@@H](O)CN(S(=O)(=O)c2ccc(OCc3cc(Cl)ccc3F)cc2)[C@H]1C(=O)NO
RESULT: 200 to 1000 nM
--
COMPOUND_SMILES: CC1(C)C[C@@H](O)CN(S(=O)(=O)c2ccc(OCc3ccc(F)cc3)cc2)[C@H]1C(=O)NO
RESULT: 20 to 200 nM
--
COMPOUND_SMILES: Cc1c(F)cccc1COc1ccc(S(=O)(=O)N2C[C@H](O)CC(C)(C)[C@@H]2C(=O)NO)cc1
RESULT: 200 to 1000 nM
--
COMPOUND_SMILES: Cc1cc(F)ccc1COc1ccc(S(=O)(=O)N2CC(=O)N[C@@H](C)[C@@H]2C(=O)NO)cc1
RESULT: > 1000 nM
--
COMPOUND_SMILES: Cc1cc(F)ccc1COc1ccc(S(=O)(=O)N2C[C@H](O)CC(C)(C)[C@@H]2C(=O)NO)cc1
RESULT: 200 to 1000 nM
--
COMPOUND_SMILES: CC1(C)C[C@@H](O)CN(S(=O)(=O)c2ccc(OCc3ccc(F)cc3Cl)cc2)[C@H]1C(=O)NO
RESULT: 200 to 1000 nM
--
COMPOUND_SMILES: C[C@@]1(O)CCCN(S(=O)(=O)c2ccc(OCc3ccccc3F)cc2)[C@H]1C(=O)NO
RESULT: 20 to 200 nM

----------
Target: Interstitial collagenase (Homo sapiens)
Sequence (P03956 whole entry): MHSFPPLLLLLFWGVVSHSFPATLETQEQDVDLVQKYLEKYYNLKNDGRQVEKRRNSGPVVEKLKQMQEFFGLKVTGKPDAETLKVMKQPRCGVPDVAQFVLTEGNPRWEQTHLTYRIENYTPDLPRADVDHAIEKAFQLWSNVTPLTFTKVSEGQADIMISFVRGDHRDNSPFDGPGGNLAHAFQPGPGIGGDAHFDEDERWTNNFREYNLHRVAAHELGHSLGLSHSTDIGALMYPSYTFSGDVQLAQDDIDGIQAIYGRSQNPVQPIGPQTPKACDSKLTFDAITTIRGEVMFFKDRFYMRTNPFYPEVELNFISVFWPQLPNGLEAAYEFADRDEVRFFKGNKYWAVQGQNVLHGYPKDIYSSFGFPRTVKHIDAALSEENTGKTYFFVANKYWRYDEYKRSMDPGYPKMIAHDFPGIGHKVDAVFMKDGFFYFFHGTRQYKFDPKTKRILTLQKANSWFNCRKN
Assay: Inhibition of trypsin-activated recombinant human collagenase 1 preincubated with protein followed by addition of DNP-Pro-Cha-Gly-Cys(Me)-His-Ala-Lys(NMA)-NH2 as substrate measured after 20 mins by fluorescence analysis
Attribute: IC50
ENDPOINT_NAME: IC50

COMPOUND_SMILES: Cc1ccccc1COc1ccc(S(=O)(=O)N2CCN(C(=O)CN)[C@@H](C)[C@@H]2C(=O)NO)cc1
TEST_SYSTEM: Interstitial collagenase (Homo sapiens)
RESULT: > 1 µM
//
COMPOUND_SMILES: CC1(C)C[C@@H](O)CN(S(=O)(=O)c2ccc(OCc3ccc(Cl)cc3Cl)cc2)[C@H]1C(=O)NO
TEST_SYSTEM: Interstitial collagenase (Homo sapiens)
RESULT: 0.2 to 1 µM
//
COMPOUND_SMILES: CNC(=O)N1CCN(S(=O)(=O)c2ccc(OCc3cc(F)ccc3C)cc2)[C@@H](C(=O)NO)[C@@H]1C
TEST_SYSTEM: Interstitial collagenase (Homo sapiens)
RESULT: > 1 µM
//
COMPOUND_SMILES: Cc1ccccc1COc1ccc(S(=O)(=O)N2CCC[C@@](C)(O)[C@@H]2C(=O)NO)cc1
TEST_SYSTEM: Interstitial collagenase (Homo sapiens)
RESULT: 0.2 to 1 µM
//
COMPOUND_SMILES: Cc1c(F)cccc1COc1ccc(S(=O)(=O)N2CCC[C@@](C)(O)[C@@H]2C(=O)NO)cc1
TEST_SYSTEM: Interstitial collagenase (Homo sapiens)
RESULT: > 1 µM
//
COMPOUND_SMILES: CC1(C)C[C@@H](O)CN(S(=O)(=O)c2ccc(OCc3ccccc3Br)cc2)[C@H]1C(=O)NO
TEST_SYSTEM: Interstitial collagenase (Homo sapiens)
RESULT: 0.2 to 1 µM
//
COMPOUND_SMILES: Cc1ccc(Cl)cc1COc1ccc(S(=O)(=O)N2C[C@H](O)CC(C)(C)[C@@H]2C(=O)NO)cc1
TEST_SYSTEM: Interstitial collagenase (Homo sapiens)
RESULT: > 1 µM
//
COMPOUND_SMILES: CNC(=O)N1CCN(S(=O)(=O)c2ccc(OCc3ccc(F)cc3F)cc2)[C@@H](C(=O)NO)[C@@H]1C
TEST_SYSTEM: Interstitial collagenase (Homo sapiens)
RESULT: 0.2 to 1 µM

----------
biological target: Collagenase 3 (Homo sapiens); test: Inhibition of APMA-activated recombinant human collagenase 3 preincubated with protein followed by addition of DNP-Pro-Cha-Gly-Cys(Me)-His-Ala-Lys(NMA)-NH2 as substrate measured every 5 mins for 1 hr by fluorescence analysis
Quick list: IC50 per entry.

COMPOUND_SMILES: Cc1ccc(F)cc1COc1ccc(S(=O)(=O)N2CCC[C@@](C)(O)[C@@H]2C(=O)NO)cc1
IC50: < 10 nM
--
COMPOUND_SMILES: Cc1ccc(Cl)cc1COc1ccc(S(=O)(=O)N2C[C@H](O)CC(C)(C)[C@@H]2C(=O)NO)cc1
IC50: 20 to 200 nM
--
COMPOUND_SMILES: Cc1cc(F)ccc1COc1ccc(S(=O)(=O)N2CC(=O)N[C@@H](C)[C@@H]2C(=O)NO)cc1
IC50: 10 to 20 nM
--
COMPOUND_SMILES: CC1(C)C[C@@H](O)CN(S(=O)(=O)c2ccc(OCc3ccc(Cl)cc3Cl)cc2)[C@H]1C(=O)NO
IC50: < 10 nM
--
COMPOUND_SMILES: CNC(=O)[C@H](Cc1ccc(OC)cc1)NC(=O)[C@@H](CC(=O)NO)CC(C)C
IC50: 1 nM
--
COMPOUND_SMILES: CC1(C)C[C@@H](O)CN(S(=O)(=O)c2ccc(OCc3ccc(F)cc3Cl)cc2)[C@H]1C(=O)NO
IC50: < 10 nM
--
COMPOUND_SMILES: Cc1ccccc1COc1ccc(S(=O)(=O)N2CCC[C@](C)(O)[C@@H]2C(=O)NO)cc1
IC50: < 10 nM
--
COMPOUND_SMILES: Cc1ccccc1COc1ccc(S(=O)(=O)N2CCN(C(=O)CN)[C@@H](C)[C@@H]2C(=O)NO)cc1
IC50: 20 to 200 nM
--
COMPOUND_SMILES: C[C@@]1(O)CCCN(S(=O)(=O)c2ccc(OCc3ccc(Cl)cc3Cl)cc2)[C@H]1C(=O)NO
IC50: < 10 nM
--
COMPOUND_SMILES: Cc1ccc(F)cc1COc1ccc(S(=O)(=O)N2CC(=O)N[C@@H](C)[C@@H]2C(=O)NO)cc1
IC50: 10 to 20 nM
--
COMPOUND_SMILES: CNC(=O)N1CCN(S(=O)(=O)c2ccc(OCc3cc(F)ccc3C)cc2)[C@@H](C(=O)NO)[C@@H]1C
IC50: < 10 nM
--
COMPOUND_SMILES: CC1(C)C[C@@H](O)CN(S(=O)(=O)c2ccc(OCc3ccc(F)cc3)cc2)[C@H]1C(=O)NO
IC50: < 10 nM
--
COMPOUND_SMILES: CC1(C)C[C@@H](O)CN(S(=O)(=O)c2ccc(OCc3cc(Cl)ccc3F)cc2)[C@H]1C(=O)NO
IC50: < 10 nM
--
COMPOUND_SMILES: Cc1c(F)cccc1COc1ccc(S(=O)(=O)N2CCC[C@@](C)(O)[C@@H]2C(=O)NO)cc1
IC50: < 10 nM
--
COMPOUND_SMILES: CNC(=O)N1CCN(S(=O)(=O)c2ccc(OCc3ccc(F)cc3F)cc2)[C@@H](C(=O)NO)[C@@H]1C
IC50: < 10 nM
--
COMPOUND_SMILES: C[C@@]1(O)CCCN(S(=O)(=O)c2ccc(OCc3ccc(F)cc3Cl)cc2)[C@H]1C(=O)NO
IC50: < 10 nM
--
COMPOUND_SMILES: CC1(C)C[C@@H](O)CN(S(=O)(=O)c2ccc(OCc3ccccc3Br)cc2)[C@H]1C(=O)NO
IC50: < 10 nM
